Task for the reader: assign each of the following sequences its reported total protein half-life in vivo.
Experiment: total protein half-life in vivo (active degradation + dilution); higher = more stable protein
Settings: wild type E. coli NCM3722; growth: C-lim chemostat; doubling time 6 h

GET /value?item= MSHTIRDKQKLKARASKIQGQVVALKKMLDEPHECAAVLQQIAAIRGAVNGLMREVIKGHLTEHIVHQGDELKREEDLDVVLKVLDSYIK &field=total protein half-life in vivo returns 7.3 h

GET /value?item= MKKVAIVGLGWLGMPLAMSLSARGWQVTGSKTTQDGVEAARMSGIDSYLLRMEPELVCDSDDLDALMDADALVITLPARRSGPGDEFYLQAVQELVDSALAHRIPRIIFTSSTSVYGDAQGTVKETTPRNPVTNSGRVLEELEDWLHNLPGTSVDILRLAGLVGPGRHPGRFFAGKTAPDGEHGVNLVHLEDVIGAITLLLQAPKGGHIYNICAPAHPARNVFYPQMARLLGLEPPQFRNSLDSGKGKIIDGSRICNELGFEYQYPDPLVMPLE [P0AD12] &field=total protein half-life in vivo returns 5.02 h

GET /value?item= MPLLHLLRQNPVIAAVKDNASLQLAIDSECQFISVLYGNICTISNIVKKIKNAGKYAFIHVDLLEGASNKEVVIQFLKLVTEADGIISTKASMLKAARAEGFFCIHRLFIVDSISFHNIDKQVAQSNPDCIEILPGCMPKVLGWVTEKIRQPLIAGGLVCDEEDARNAINAGVVALSTTNTGVWTLAKKLL &field=total protein half-life in vivo returns 4.77 h

GET /value?item= MNNHFKCIGIVGHPRHPTALTTHEMLYRWLCTKGYEVIVEQQIAHELQLKNVKTGTLAEIGQLADLAVVVGGDGNMLGAARTLARYDIKVIGINRGNLGFLTDLDPDNAQQQLADVLEGHYISEKRFLLEAQVCQQDCQKRISTAINEVVLHPGKVAHMIEFEVYIDEIFAFSQRSDGLIISTPTGSTAYSLSAGGPILTPSLDAITLVPMFPHTLSARPLVINSSSTIRLRFSHRRNDLEISCDSQIALPIQEGEDVLIRRCDYHLNLIHPKDYSYFNTLSTKLGWSKKLF [P0A7B3] &field=total protein half-life in vivo returns 5.33 h

GET /value?item= MKPGCTLFFLLCSALTVTTEAHAQTPDTATTAPYLLAGAPTFDLSISQFREDFNSQNPSLPLNEFRAIDSSPDKANLTRAASKINENLYASTALERGTLKIKSIQMTWLPIQGPEQKAAKAKAQEYMAAVIRTLTPLMTKTQSQKKLQSLLTAGKNKRYYTETEGALRYVVADNGEKGLTFAVEPIKLALSESLEGLNK &field=total protein half-life in vivo returns 5.26 h

For each listed entry, give its total protein half-life in vivo.
1. MVEDILAPGLRVVFCGINPGLSSAGTGFPFAHPANRFWKVIYQAGFTDRQLKPQEAQHLLDYRCGVTKLVDRPTVQANEVSKQELHAGGRKLIEKIEDYQPQALAILGKQAYEQGFSQRGAQWGKQTLTIGSTQIWVLPNPSGLSRVSLEKLVEAYRELDQALVVRGR [P0A9H1]
2. MPPRALLLVDLQNDFCAGGALAVPEGDSTVDVANRLIDWCQSRGEAVIASQDWHPANHGSFASQHGVEPYTPGQLDGLPQTFWPDHCVQNSEGAQLHPLLHQKAIAAVFHKGENPLVDSYSAFFDNGRRQKTSLDDWLRDHEIDELIVMGLATDYCVKFTVLDALQLGYKVNVITDGCRGVNIQPQDSAHAFMEMSAAGATLYTLADWEETQG

[A]
1. 5.79 h
2. 6.27 h
